Values were extracted from PubChem BioAssay (Tox21).

- measurement_target: Nuclear receptor subfamily 1 group I member 3 (Homo sapiens)
- procedure_summary: qHTS assay to identify small molecule antagonists of the constitutive androstane receptor (CAR) signaling pathway (AID 1224838);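 also: HepG2 cells stably expressing hCAR with CYP2B6 luciferase reporter stimulated by CITCO; % is scaled to controls: 0 for no effect and ±100 for the full control effect; nearly all actives have a fitted effect of over 40% in size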
- condition_summary: HepG2-CYP2B6-hCAR luciferase, CITCO-stimulated, 24 h; series mostly up to 92.4 µM
Records with an inconclusive call do not appear. Activity calls are given as the source filed them. Calls follow the shape of the dose curve; as a rule, active = well fitted inhibition curve with a large enough effect in the repeat runs; inconclusive = weak or mixed curves, or effect the other way; inactive = no such curve, though single readings can be large or run the other way.
Lab note: assign the record to one of active, inactive

Reference set, count: 3
compound	answer_label
ClC(Cl)(Cl)Cl	inactive
COP(=O)(O)OC	inactive
CON(C)C(=O)Nc1ccc(Br)cc1	inactive

Per the assay record, what outcome was assigned to "CC[C@H](N)c1ccccc1" ?
inactive

Another compound: "C/C(=N\NC(=O)Nc1cc(F)cc(F)c1)c1ncccc1C(=O)O"
inactive

What about "Cl/C=C/CCl" ?
inactive

Quick one: "C#CC(C)(C)O"
inactive

Input "c1cncc([C@@H]2CCCCN2)c1"
inactive

Another compound: "C=C(Cl)CSC(=S)N(CC)CC"
inactive

For "Cc1cccc2sc3nncn3c12" then?
inactive

Same lookup for "ClCCN1CCCC1" , please.
inactive

And CCN1CCCC1CNC(=O)C(O)(c1ccccc1)c1ccccc1 (stereo not drawn) ?
inactive

Further, for CCCOC(=O)c1cncn1C(C)c1ccccc1 (stereo not drawn) ?
inactive

What would you report for "COc1cccc(C=O)c1" ?
inactive

Let us now turn to "C=CC=O"
inactive

Likewise for "CC(C)(C)C(=O)C(Cl)Cl" ?
inactive

Then what about the compound "C/C=C/CC#N" ?
inactive

* * *

- measurement_target: Luciferin 4-monooxygenase (Photinus pyralis) (UniProt P08659)
- Sequence (P08659 whole entry, looked up): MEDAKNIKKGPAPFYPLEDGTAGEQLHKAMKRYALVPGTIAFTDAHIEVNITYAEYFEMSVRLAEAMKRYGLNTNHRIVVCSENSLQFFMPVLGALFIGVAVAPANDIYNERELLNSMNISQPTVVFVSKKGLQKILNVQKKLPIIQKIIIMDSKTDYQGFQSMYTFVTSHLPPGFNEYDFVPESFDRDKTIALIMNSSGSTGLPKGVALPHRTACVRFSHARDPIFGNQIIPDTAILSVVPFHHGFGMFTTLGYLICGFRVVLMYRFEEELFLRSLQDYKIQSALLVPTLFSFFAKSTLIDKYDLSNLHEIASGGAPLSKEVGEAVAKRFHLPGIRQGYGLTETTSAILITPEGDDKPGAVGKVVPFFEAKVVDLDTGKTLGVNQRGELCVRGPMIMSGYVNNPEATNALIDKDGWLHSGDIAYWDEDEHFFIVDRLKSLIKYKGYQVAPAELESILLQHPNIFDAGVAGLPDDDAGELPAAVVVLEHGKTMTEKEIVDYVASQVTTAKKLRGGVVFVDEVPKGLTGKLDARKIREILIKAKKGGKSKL
- procedure_summary: qHTS assay to identify small molecule inhibitors of firefly luciferase (AID 1224835); also: % is scaled to controls: 0 for no effect and ±100 for the full control effect; nearly all actives have a fitted effect of over 25% in size
- condition_summary: purified P. pyralis luciferase, luminescence inhibition; series mostly up to 115 µM
Results filed as inconclusive are left out. Active and inactive are the calls of the source. The call rests on the fitted dose curve; in most records, active means well fitted inhibition curve with a large enough effect in the repeat runs; inconclusive means weak or mixed curves; inactive means flat fitted curve, though single readings scatter.
endpoint: outcome

Before answering, review these 6 worked examples.
compound	outcome
Oc1ccc2c3c1O[C@H]1[C@@H](O)C=C[C@H]4[C@@H](C2)NCC[C@@]341	inactive
CCC1(c2ccccc2)CCC(=O)NC1=O (centres undefined)	inactive
CCCOC(=O)c1cncn1C(C)c1ccccc1 (centres undefined)	inactive
CCc1cc(OC)c(C[C@H](C)N)cc1OC	inactive
CC(C)(N)Cc1ccc(Cl)cc1	inactive
O=C1CC(=O)NC(=O)N1	inactive

Record request: outcome value, item "O=CCCl"
inactive

Quick one: "O=P(O)(O)CN(CP(=O)(O)O)CP(=O)(O)O"
inactive

Input "O=C(Cl)OCc1ccccc1"
inactive

Next compound up: "c1ccc2c(c1)CCNC2"
inactive

* * *

- procedure_summary: qHTS assay for identifying genotoxic compounds that show differential cytotoxicity against isogenic chicken DT40 cell lines with known DNA damage response pathways - wild type cell line (AID 743012); also: nearly all actives have a fitted effect of over 60% in size; also: potency is read from the fitted curve at half-maximal effect
- condition_summary: DT40 wild type chicken cells viability, CellTiter-Glo, 40 h; series mostly up to 68.4 µM
Results filed as inconclusive are left out. The source made the active and inactive calls. Calls follow the shape of the dose curve; as a rule, active = well fitted cell-killing curve with a large enough effect in the repeat runs; inconclusive = weak or mixed curves, or effect the other way; inactive = no such curve, though single readings can be large or run the other way.
endpoint: Potency

The examples below pair each entry with its known result.
compound	Potency
c1cncc([C@@H]2CCCCN2)c1	inactive
C=C1CC[C@@]2(O)[C@H]3Cc4ccc(O)c5c4[C@@]2(CCN3CC2CC2)[C@H]1O5	inactive
O=C(Cl)CCl	inactive
N[C@@H]1C[C@H]1c1ccccc1	inactive
O=S1(=O)OCCO1	inactive

Please look up its Potency: "COC1=CC(=O)O[C@@H](/C=C/c2ccccc2)C1"
inactive

Now the compound "CC(C)(C)C(=O)C(Cl)Cl"
inactive

Entry to check: "CON(C)C(=O)Nc1ccc(Br)cc1"
inactive

Entry "COC(=O)[C@@H](N)CCCN/C(N)=N/[N+](=O)[O-]" please
inactive

What do you get for "C=C(Cl)CCl" ?
inactive

Same lookup for "CC[C@H](O)C(C[C@H](C)N(C)C)(c1ccccc1)c1ccccc1" , please.
62.3 µM (active)

* * *

- procedure_summary: qHTS assay to test for compound auto fluorescence at 535 nm (green) in HepG2 cell free culture (AID 720686); also: % is scaled to controls: 0 for no effect and ±100 for the full control effect
- condition_summary: Cell-free medium, green autofluorescence 485/535 nm; series mostly up to 91.3 µM
Calls of active or inactive are those of the source. The call rests on the fitted dose curve; in most records, active means well fitted curve in the direction sought with a large enough effect in the repeat runs; inconclusive means weak or mixed curves; inactive means flat fitted curve, though single readings scatter.
endpoint: fluorescence, % of fluorescein control

compound	result
CCN(CCO)CCO	inactive
C[C@]12C=CC(=O)C=C1CC[C@@H]1[C@@H]2CC[C@@]2(C)[C@H]1CC[C@]2(C)O	inactive
N=C(N)[Se]	inactive
OP(O)c1ccccc1	inactive

Would you mind telling me what fluorescence, % of fluorescein control value was observed for "CON(C)C(=O)Nc1ccc(Br)c(Cl)c1" ?
inactive

Then what about the compound O=C(O)C(Cl)Br (centres undefined) ?
inactive

Same question for "O=C1CC(=O)NC(=O)N1" please.
inactive

Field entry: "c1ccc2c(c1)CCNC2"
inactive

Same question, "CS(=O)(=O)c1ccc(C(=O)C2C(=O)CCCC2=O)c(Cl)c1COCC(F)(F)F" this time
inactive

Please give the result for "Clc1cc2c(cc1Cl)Oc1cc(Cl)c(Cl)cc1O2" too.
-0.0284% [at 0.37 µM] (inactive)

Item: "CC(C)(C)C(=O)Cl"
inactive

// same read-out, input: "NC1(c2ccccc2)CCCCC1"
inactive

Further, for "COc1cccc([C@@]2(O)CCCC[C@@H]2CN(C)C)c1" ?
inactive

Try "CNC(=O)Oc1ccccc1C(C)C" next.
inactive

Queued: "CNC(=O)Oc1cc(C)c(N(C)C)c(C)c1"
inactive

Do the same for "COc1cccc(C=O)c1" please
inactive

Input "c1cncc([C@@H]2CCCCN2)c1"
inactive

Cool, now CCOC1Oc2ccc(OS(C)(=O)=O)cc2C1(C)C (centres undefined)
inactive

Now the same for "CC(C)(O)C(Cl)(Cl)Cl"
inactive

Would you mind doing "O=C(Cl)OCc1ccccc1" as well?
inactive

What do you get for "COc1ccc(CN2CCNCC2)c(OC)c1OC" ?
-0.137% [at 18.6 µM] (inactive)

Subsequent entry: "CCCC[N+](=O)[O-]"
inactive

Check "CCN(CC)CCOC(=O)C(O)(c1ccccc1)c1ccccc1" too.
inactive

For C#CCOC(=O)/C=C(C)/C=C/CC(C)CCCC(C)C (centres undefined) then?
inactive

* * *

- measurement_target: Estrogen receptor beta (Homo sapiens) (UniProt Q92731)
- Sequence (Q92731 whole entry, looked up): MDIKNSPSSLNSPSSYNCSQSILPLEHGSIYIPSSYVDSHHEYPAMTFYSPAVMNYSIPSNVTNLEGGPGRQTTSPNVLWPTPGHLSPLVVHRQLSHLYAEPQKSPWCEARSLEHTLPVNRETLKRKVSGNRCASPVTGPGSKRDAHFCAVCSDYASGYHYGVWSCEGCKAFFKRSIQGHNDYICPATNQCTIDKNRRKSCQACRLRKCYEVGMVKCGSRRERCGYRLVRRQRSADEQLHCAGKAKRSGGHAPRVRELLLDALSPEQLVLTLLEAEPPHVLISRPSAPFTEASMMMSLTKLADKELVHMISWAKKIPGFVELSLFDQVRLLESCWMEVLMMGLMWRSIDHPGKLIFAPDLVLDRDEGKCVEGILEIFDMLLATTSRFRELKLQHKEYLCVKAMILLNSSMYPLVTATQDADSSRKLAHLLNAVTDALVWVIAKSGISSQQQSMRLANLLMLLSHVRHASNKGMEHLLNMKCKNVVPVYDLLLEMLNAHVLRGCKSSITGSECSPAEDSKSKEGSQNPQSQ
- procedure_summary: qHTS assay to identify small molecule antagonists of the estrogen receptor beta (ER-beta) signaling pathway (AID 1259378); also: % is scaled to controls: 0 for no effect and ±100 for the full control effect
- condition_summary: ER-beta-UAS-bla HEK293T, beta-lactamase FRET ratio, 16 h; series mostly up to 92.4 µM
Results filed as inconclusive are left out. Calls of active or inactive are those of the source. The call rests on the fitted dose curve; in most records, active means well fitted inhibition curve with a large enough effect in the signal ratio in the repeat runs (not every such curve was filed as active); inconclusive means weak or mixed curves, or effect the other way; inactive means no such curve, though single readings can be large or run the other way; the % refers to the signal ratio.
endpoint: activity, negative = inhibition

cpd_smiles	activity, negative = inhibition
Clc1cc2c(cc1Cl)Oc1cc(Cl)c(Cl)cc1O2	4.24% [at 0.349 µM] (inactive)
C[C@H](CN1CCOCC1)C(C(=O)N1CCCC1)(c1ccccc1)c1ccccc1	inactive
CC[C@H](O)C(C[C@H](C)N(C)C)(c1ccccc1)c1ccccc1	inactive
CCc1cc(OC)c(C[C@H](C)N)cc1OC	inactive

Sample "CC[C@H](N)c1ccccc1" — what was its activity, negative = inhibition?
inactive

* * *

- measurement_target: Cytochrome P450 2C19 (Homo sapiens) (UniProt P33261)
- Sequence (P33261 whole entry, looked up): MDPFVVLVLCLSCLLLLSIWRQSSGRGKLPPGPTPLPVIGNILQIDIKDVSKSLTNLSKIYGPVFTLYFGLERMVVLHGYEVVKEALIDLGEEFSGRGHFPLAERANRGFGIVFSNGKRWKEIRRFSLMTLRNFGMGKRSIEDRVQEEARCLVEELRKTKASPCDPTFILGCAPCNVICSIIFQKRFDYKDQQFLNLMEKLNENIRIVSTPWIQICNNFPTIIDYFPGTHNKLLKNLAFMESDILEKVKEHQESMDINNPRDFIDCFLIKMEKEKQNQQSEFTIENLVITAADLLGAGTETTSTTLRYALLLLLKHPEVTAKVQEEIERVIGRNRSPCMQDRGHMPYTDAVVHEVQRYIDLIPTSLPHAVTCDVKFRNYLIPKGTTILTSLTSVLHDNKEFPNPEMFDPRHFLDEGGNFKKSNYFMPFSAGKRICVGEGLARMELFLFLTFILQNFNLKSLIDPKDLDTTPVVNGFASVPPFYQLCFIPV
- procedure_summary: Cytochrome P450 Family 2 Subfamily C Member 19 (CYP2C19) small molecule antagonists: luciferase reporter qHTS assay (AID 1671197); also: nearly all actives have a fitted effect of over 65% in size; also: potency is read from the fitted curve at half-maximal effect
- condition_summary: P450-Glo CYP2C19 enzyme, luciferin luminescence, 1 h; series mostly up to 115 µM
Inconclusive results are not listed. Active and inactive are the calls of the source. Calls come from the whole dose curve; as a rule, active = well fitted inhibition curve with a large enough effect in the repeat runs; inconclusive = weak or mixed curves; inactive = no such curve, though single readings can be large or run the other way.
endpoint: Potency

Answered cases to consult:
compound	Potency
CN=CNc1ccc(C)cc1C	inactive
CC[C@@H](CO)NC(=O)[C@@H]1C=C2c3cccc4c3c(cn4C)C[C@H]2N(C)C1	inactive
CC(C)N(Cc1ccccc1)C(=O)C(C)(C)C	20 µM (active)
CC(Cc1ccccc1)NCCn1cnc2c1c(=O)n(C)c(=O)n2C (stereo not drawn)	78.7 µM (active)
CCOC(=O)NC(C)(C)Cc1ccc(Cl)cc1	4.36 µM (active)

May I ask what Potency has been recorded for "C=CCc1cc(OC)c2c(c1)OCO2" ?
59 µM (active)

* * *

- procedure_summary: qHTS assay to identify small molecule antagonists of the estrogen related receptor signaling pathway with the pleiotropic PPARgamma coactivator (PGC) from Tox21 10K library - cell viability counter screen (AID 1224840); also: % is scaled to controls: 0 for no effect and ±100 for the full control effect; nearly all actives have a fitted effect of over 40% in size
- condition_summary: PGC/ERR reporter cells viability, CellTiter-Fluor, 17.5 h; series mostly up to 92.4 µM
- Procedure: National Center for Advancing Translational Sciences [NCATS] NIH Chemical Genomics Center [NCGC] U.S. Environmental Protection Agency [EPA] National Institutes of Environmental Health Sciences [NIEHS] National Toxicology Program [NTP] […] The PGC/ERR cells were dispensed at 2,000 cells/5 ul/well in 1536-well white plates using a Multidrop dispenser. […] After 30-minute incubation at 37 C/5% CO2, the fluorescence intensity in the plates was measured using a ViewLux plate reader.
Records with an inconclusive call do not appear. The source made the active and inactive calls. Calls come from the whole dose curve; as a rule, active = well fitted cell-killing curve with a large enough effect in the repeat runs (not every such curve was filed as active); inconclusive = weak or mixed curves, or effect the other way; inactive = no such curve, though single readings can be large or run the other way.
Give your call using only these classes: 1.0 for active, 0.0 for inactive

compound	answer_label
ClCCN1CCCC1	0.0
CCN(CC)C1CCCCC1	0.0
c1ccc2c(c1)CCNC2	0.0
COC[C@@H](NC(C)=O)C(=O)NCc1ccccc1	0.0
CC(C)(C)C(=O)Cl	0.0
Cc1ccc(S(=O)(=O)N[C@@H](CCCCN)C(=O)CCl)cc1	0.0
O=C(Cl)C(Cl)Cl	0.0
CC(C)[N+](C)(CCC(C(N)=O)(c1ccccc1)c1ccccc1)C(C)C	0.0

Recorded call for "CCCOc1nn(C(=O)NS(=O)(=O)c2ccccc2C(=O)OC)c(=O)n1C" ?
0.0

Check C(COCC1CO1)OCC1CO1 (stereo unspecified) too.
0.0

Same lookup for "CCOC(=O)Nc1cccc(OC(=O)Nc2ccccc2)c1" , please.
0.0

For "C=C(C)[C@H]1CN[C@H](C(=O)O)[C@H]1CC(=O)O" then?
0.0

What about "N=C(N)[Se]" ?
0.0
